- Tested on: HIV-1 92UG029
- method.notes: Anti-HIV-1 activity, primary strain 92UG029
- Type: cell-based
- measurement.setup: Human immunodeficiency virus 1, luciferase readout, mean ± SD
observation.type: IC50 (µM)
Report the figure in µM without appending any unit label.

Problem: I have this molecule here, Cc1cc(/C=C2\SC(=S)N(Cc3ccccc3C(F)(F)F)C2=O)c(C)n1-c1ccc(O)c(C(=O)O)c1 [NSPD-12m] , and I need its recorded IC50.
Result: 2.08

---

- experimental.system: gp41 6-HB (N36/C34) (Human immunodeficiency virus type 1 group M subtype B)
- Construct: purchased GL Biochem of China; host or cells: chemical solid-phase Fmoc synthesis
- Sequence (P04578 546-581): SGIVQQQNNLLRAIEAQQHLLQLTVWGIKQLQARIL
- method.notes: Sandwich ELISA for gp41 6-HB formation
- Type: biochemical, HIV-1
- measurement.setup: sandwich ELISA with mAb NC-1; 0.5-µM N36 and C34
observation.type: EC50 (µM)
Report the figure in µM without appending any unit label.

Problem: I have this compound here, Cc1cc(/C=C2\SC(=S)N(Cc3ccccc3C(F)(F)F)C2=O)c(C)n1-c1ccc(O)c(C(=O)O)c1 [NSPD-12m] , and I need its recorded EC50.
Result: 23

---

- method.notes: XTT assay, MT-2 cells
- Type: cell-based
- measurement.setup: human
observation.type: CC50 at 3 days (µM)
Report the figure in µM without appending any unit label.

Problem: I have this compound here, Cc1cc(/C=C2\SC(=S)N(Cc3ccccc3C(F)(F)F)C2=O)c(C)n1-c1ccc(O)c(C(=O)O)c1 [NSPD-12m] , and I need its recorded CC50 at 3 days.
Result: 67.1

---

- Tested on: HIV-1HXB2 (X4 strain) Env pseudotyped virus
- method.notes: microbe, parasite or virus in culture
- Format: cell-based
- measurement.setup: Human immunodeficiency virus 1, single-cycle infection, luciferase
pEC50: −log10 of the molar value.
observation.type: pEC50

Problem: Please tell me: pEC50 of Cc1cc(/C=C2\SC(=S)N(Cc3ccccc3C(F)(F)F)C2=O)c(C)n1-c1ccc(O)c(C(=O)O)c1 [NSPD-12m] , system HIV-1HXB2 (X4 strain) Env pseudotyped virus?
Result: ~4.64

---

- method.notes: XTT assay, TZM-bl cells
- Assay type: cell-based
- measurement.setup: human
observation.type: CC50 at 3 days (µM)
Report the figure in µM without appending any unit label.

Problem: I have this compound here, Cc1cc(/C=C2\SC(=S)N(Cc3ccccc3C(F)(F)F)C2=O)c(C)n1-c1ccc(O)c(C(=O)O)c1 [NSPD-12m] , and I need its recorded CC50 at 3 days.
Result: 79

---

- method.notes: XTT assay, U87-CD4-CCR5 cells
- Format: cell-based
- measurement.setup: human
observation.type: CC90 at 3 days (µM)
Report the figure in µM without appending any unit label.

Problem: I have this molecule here, Cc1cc(/C=C2\SC(=S)N(Cc3ccccc3C(F)(F)F)C2=O)c(C)n1-c1ccc(O)c(C(=O)O)c1 [NSPD-12m] , and I need its recorded CC90 at 3 days.
Result: 102

---

- System: HIV-1 NL4-3(36G)N42T,N43K
- measurement.setup: T20-resistant NL4-3(36G)N42T,N43K; p24 ELISA; mean ± SD
Property: pIC50; scope: individual molecules
Schema: pIC50 number; meaning minus log10 of the concentration expressed in molar units.

>  <molecule>
COc1ccc(S(=O)(=O)[O-])cc1N=Nc1c(S(=O)(=O)[O-])cc2cc(Nc3nc(Nc4ccccc4)nc(Nc4cc(C)c(N=Nc5cc(S(=O)(=O)[O-])cc6cc(S(=O)(=O)[O-])cc(O)c56)cc4OC)n3)ccc2c1O.[Na+].[Na+].[Na+].[Na+]

>  <pIC50>
6.21

$$$$

Problem: I have this molecule here, Cc1cc(/C=C2\SC(=S)N(Cc3ccccc3C(F)(F)F)C2=O)c(C)n1-c1ccc(O)c(C(=O)O)c1 [NSPD-12m] , and I need its recorded pIC50.
Result: 5.37

These measurements were taken from paper PMC6688628.
